Origin of the recorded values: patent US11180474B2

test-system: human TLR8 (Homo sapiens, UniProt Q9NR97)
Sequence (Q9NR97 27-1041): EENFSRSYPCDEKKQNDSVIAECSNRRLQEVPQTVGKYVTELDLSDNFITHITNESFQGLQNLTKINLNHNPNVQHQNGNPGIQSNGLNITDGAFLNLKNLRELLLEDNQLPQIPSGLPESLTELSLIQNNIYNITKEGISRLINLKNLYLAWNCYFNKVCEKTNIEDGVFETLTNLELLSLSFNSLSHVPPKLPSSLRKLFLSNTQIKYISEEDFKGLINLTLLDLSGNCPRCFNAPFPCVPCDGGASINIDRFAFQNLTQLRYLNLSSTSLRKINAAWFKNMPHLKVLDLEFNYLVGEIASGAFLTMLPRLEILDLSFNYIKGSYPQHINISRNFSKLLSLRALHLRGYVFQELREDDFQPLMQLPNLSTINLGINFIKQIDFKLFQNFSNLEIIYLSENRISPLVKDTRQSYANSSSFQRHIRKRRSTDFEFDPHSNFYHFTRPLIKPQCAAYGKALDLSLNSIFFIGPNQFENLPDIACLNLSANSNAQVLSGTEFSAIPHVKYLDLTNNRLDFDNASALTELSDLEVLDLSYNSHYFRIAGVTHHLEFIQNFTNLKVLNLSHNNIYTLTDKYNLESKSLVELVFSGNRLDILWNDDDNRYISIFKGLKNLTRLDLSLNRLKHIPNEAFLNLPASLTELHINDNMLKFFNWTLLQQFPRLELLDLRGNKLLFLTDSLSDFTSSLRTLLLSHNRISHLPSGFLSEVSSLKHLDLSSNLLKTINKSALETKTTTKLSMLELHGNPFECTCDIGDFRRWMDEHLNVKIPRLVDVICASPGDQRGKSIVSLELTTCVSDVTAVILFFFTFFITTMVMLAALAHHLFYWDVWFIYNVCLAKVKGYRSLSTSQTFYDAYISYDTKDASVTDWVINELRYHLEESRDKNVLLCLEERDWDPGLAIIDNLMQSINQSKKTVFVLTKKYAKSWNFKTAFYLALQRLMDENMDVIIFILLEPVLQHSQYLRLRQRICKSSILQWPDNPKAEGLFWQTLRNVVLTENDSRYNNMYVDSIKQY
protocol-notes: TLR8 inhibition reporter assay (HEK-Blue cells, SEAP reporter, R848 stimulation)
test-parameters: HEK-Blue cells overexpressing human TLR8, R848 15.9 μM
Structures can show the parent of a compound that is named as a salt.
metric: IC50 (nM)

Answered examples (2):
compound	assay-result
COc1ccc(-c2[nH]c3cc(C)c(C4CCNCC4)cc3c2C(C)C)cc1OC [Example 205]	6870
CCN(CC)C(=O)CN(C)CC(=O)N1CCC(c2ccc3[nH]c(-c4ccc(OC)c(OC)c4)c(C(C)C)c3c2)CC1 [Example 203, TFA]	286

1: COc1ccc(-c2[nH]c3ccc(C4CCN(Cc5nccn5C)CC4)cc3c2C(C)C)cc1OC [Example 262]
2: COc1ccc(-c2[nH]c3ccc(C4CCN(CC(=O)N[C@H]5CC[C@H](C(C)(C)O)CC5)CC4)cc3c2C(C)C)cc1OC [Example 279]
3: CCN(CC)C(=O)C1CCCN(C(=O)CN2CCC(c3ccc4[nH]c(-c5ccc(OC)c(OC)c5)c(C(C)C)c4c3)CC2)C1 (stereo not shown) [Example 272]
4: CCc1c(-c2ccc(OC)c(OC)c2)[nH]c2ccc(C3CCN(C(=O)C4(C)CCNCC4)CC3)cc12 [Example 187]
5: CCc1c(-c2ccc(OC)c(OC)c2)[nH]c2ccc(C3CCN(C4CCN(Cc5cc(C)n(C)n5)CC4)CC3)cc12 [Example 144]
Q: Order by IC50, ascending. Sort the labels as requested; that list is your answer.
Ans: 1, 3, 5, 4, 2
(1: 23 nM, 3: 37 nM, 5: 73 nM, 4: 162 nM, 2: 1160 nM)

###

test-system: human TLR9 (Homo sapiens, UniProt Q9NR96)
Construct: host or cells: HEK-Blue cells
Sequence (Q9NR96 26-1032): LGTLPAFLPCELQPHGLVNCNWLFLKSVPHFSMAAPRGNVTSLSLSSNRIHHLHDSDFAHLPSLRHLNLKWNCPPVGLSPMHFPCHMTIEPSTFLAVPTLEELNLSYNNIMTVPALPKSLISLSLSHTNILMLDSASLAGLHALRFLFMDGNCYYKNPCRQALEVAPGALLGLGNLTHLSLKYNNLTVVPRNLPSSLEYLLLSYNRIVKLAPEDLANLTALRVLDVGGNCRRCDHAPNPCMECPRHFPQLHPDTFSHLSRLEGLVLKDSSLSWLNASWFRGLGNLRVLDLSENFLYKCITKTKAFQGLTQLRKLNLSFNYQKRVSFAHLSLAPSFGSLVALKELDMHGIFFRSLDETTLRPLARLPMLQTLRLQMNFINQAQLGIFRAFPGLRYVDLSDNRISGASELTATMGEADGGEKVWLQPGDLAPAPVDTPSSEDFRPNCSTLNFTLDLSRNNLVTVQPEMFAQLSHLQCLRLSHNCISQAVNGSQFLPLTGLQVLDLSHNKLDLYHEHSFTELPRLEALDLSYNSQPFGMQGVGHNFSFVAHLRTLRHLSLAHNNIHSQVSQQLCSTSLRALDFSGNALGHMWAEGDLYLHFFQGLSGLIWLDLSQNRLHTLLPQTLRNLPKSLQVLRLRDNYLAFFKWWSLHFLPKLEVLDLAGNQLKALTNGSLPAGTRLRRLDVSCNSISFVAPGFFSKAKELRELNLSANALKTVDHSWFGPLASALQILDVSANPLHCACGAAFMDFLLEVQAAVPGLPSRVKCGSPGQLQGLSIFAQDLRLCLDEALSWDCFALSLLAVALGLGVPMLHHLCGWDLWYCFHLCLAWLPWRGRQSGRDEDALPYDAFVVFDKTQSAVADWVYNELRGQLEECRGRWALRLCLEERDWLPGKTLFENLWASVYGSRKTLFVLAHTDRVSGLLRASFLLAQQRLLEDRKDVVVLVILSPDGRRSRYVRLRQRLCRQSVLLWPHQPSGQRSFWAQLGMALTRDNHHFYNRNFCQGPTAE
protocol-notes: TLR9 inhibition reporter assay (HEK-Blue cells, SEAP reporter, ODN2006 stimulation)
Format: cell-based
test-parameters: HEK-Blue cells overexpressing human TLR9, ODN2006 5 nM
metric: IC50 (nM)

A: COc1ccc(-c2[nH]c3ccc(C4CCN(C(=O)CNC[C@@H](O)CO)CC4)cc3c2C)cc1OC [Example 405]
B: COc1ccc(-c2[nH]c3ccc(C4CCN(CC(=O)NCCCCN5CCCC5)CC4)cc3c2CC(F)(F)F)cc1OC [Example 388]
C: COc1ccc(-c2[nH]c3ccc(C4CCN(C5CCN(CC6CCCCC6)CC5)CC4)cc3c2C)cc1OC [Example 58]
D: COc1ccc(-c2[nH]c3ccc(C4CCN(C(=O)CN5CCC[C@@H](C(=O)N6CCN(CCN7CCCC7)CC6)C5)CC4)cc3c2C(C)C)cc1OC [Example 307]
Q: Sort the list above on IC50 in ascending fashion. Sort the labels as requested; that list is your answer.
Ans: C, B, D, A
(C: 86 nM, B: 288 nM, D: 579 nM, A: 13500 nM)

P: COc1ccc(-c2[nH]c3ccc(C4CCN(CC(=O)N5CCC(N6CCCCC6)CC5)CC4)cc3c2CC(F)(F)F)cc1OC [Example 359]
Q: CCc1c(-c2ccc(OC)c(OC)c2)[nH]c2ccc(C3CCN(C4CCN(Cc5cc6ccccc6[nH]5)CC4)CC3)cc12 [Example 128]
R: CCc1c(-c2ccc(OC)c(OC)c2)[nH]c2ccc(C3CCN(C(=O)CNC4CCC(N(C)C)CC4)CC3)cc12 (centres unmarked) [Example 162]
S: COc1ccc(-c2[nH]c3ccc(C4CCN(Cc5ccc(N6CCN(C)CC6)cc5)CC4)cc3c2C)cc1OC [Example 42]
Q: Order by IC50, ascending. Sort the labels as requested; that list is your answer.
Ans: S, P, R, Q
